- measured-on: Nluc-H1R (Homo sapiens)
- assay-details: NanoBRET association kinetics in whole HEK293T cells
- Format: binding
- measurement-context: kinetic KD (koff/kon), whole HEK293T cells expressing Nluc-H1R; read-out: NanoBRET kinetics pKD (converted)
Some compounds, each annotated with its measured Kd.
value-type: Kd (µM)

- compound: "NC(=O)C[C@H](NC(=O)CNC(=O)CNC(=O)CCN1CCC(Oc2ccccc2Cc2ccccc2)CC1)C(=O)NCCNC(=O)CCCCCNC(=O)COc1ccc(/C=C/C2=[N+]3C(=Cc4ccc(-c5cccs5)n4[B-]3(F)F)C=C2)cc1"
  recorded-result: 0.01
- compound: "COc1ccc(CN(CCN(C)CCC(=O)N[C@@H](C)C(=O)N[C@@H](C)C(=O)N[C@@H](CO)C(=O)NCCNC(=O)CCCCCNC(=O)COc2ccc(/C=C/C3=[N+]4C(=Cc5ccc(-c6cccs6)n5[B-]4(F)F)C=C3)cc2)c2ccccn2)cc1"
  recorded-result: 0.00631
- compound: "CC(O)[C@H](NC(=O)[C@H](C)NC(=O)[C@H](CC(N)=O)NC(=O)CCN1CCC(Oc2ccccc2Cc2ccccc2)CC1)C(=O)NCCNC(=O)CCCCCNC(=O)COc1ccc(/C=C/C2=[N+]3C(=Cc4ccc(-c5cccs5)n4[B-]3(F)F)C=C2)cc1 (stereo partly drawn)"
  recorded-result: 0.01
- compound: "C[C@H](NC(=O)CCN1CCC(Oc2ccccc2Cc2ccccc2)CC1)C(=O)N[C@@H](C)C(=O)N[C@@H](C)C(=O)NCCNC(=O)CCCCCNC(=O)COc1ccc(/C=C/C2=[N+]3C(=Cc4ccc(-c5cccs5)n4[B-]3(F)F)C=C2)cc1"
  recorded-result: 0.0126
- compound: "COc1ccc(CN(CCN(C)CCC(=O)N[C@@H](C)C(=O)N[C@@H](C)C(=O)NCCNC(=O)CCCCCNC(=O)COc2ccc(/C=C/C3=[N+]4C(=Cc5ccc(-c6cccs6)n5[B-]4(F)F)C=C3)cc2)c2ccccn2)cc1"
  recorded-result: 0.00501
- compound: "COc1ccc(CN(CCN(C)CCC(=O)NCCCC(=O)N[C@@H](C)C(=O)N[C@@H](C)C(=O)NCCNC(=O)CCCCCNC(=O)COc2ccc(/C=C/C3=[N+]4C(=Cc5ccc(-c6cccs6)n5[B-]4(F)F)C=C3)cc2)c2ccccn2)cc1"
  recorded-result: 0.0398

---

- measured-on: Nluc-H1R (Homo sapiens, UniProt P35367)
- Sequence (P35367 2-487 limits assumed): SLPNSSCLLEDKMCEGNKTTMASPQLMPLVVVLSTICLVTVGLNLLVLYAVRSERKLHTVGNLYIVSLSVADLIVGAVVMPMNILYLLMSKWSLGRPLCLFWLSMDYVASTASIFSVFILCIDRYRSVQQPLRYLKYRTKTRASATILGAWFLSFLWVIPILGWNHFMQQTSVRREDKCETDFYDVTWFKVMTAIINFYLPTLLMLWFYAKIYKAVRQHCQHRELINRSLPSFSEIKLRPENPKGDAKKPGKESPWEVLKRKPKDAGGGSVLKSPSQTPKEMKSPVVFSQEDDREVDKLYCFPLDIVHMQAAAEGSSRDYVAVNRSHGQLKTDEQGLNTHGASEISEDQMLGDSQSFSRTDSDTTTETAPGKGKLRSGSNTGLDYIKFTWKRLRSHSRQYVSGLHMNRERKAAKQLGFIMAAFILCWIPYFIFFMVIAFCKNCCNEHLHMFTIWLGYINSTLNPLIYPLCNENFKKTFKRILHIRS
- assay-details: NanoBRET association kinetics in whole HEK293T cells
- Assay type: binding
- measurement-context: read-out: NanoBRET kinetics koff, whole HEK293T cells expressing Nluc-H1R, room temperature
koff vs 0.002 s⁻¹: at or above is MET, below is NOT MET.

- compound: "COc1ccc(CN(CCN(C)CCC(=O)NCCCC(=O)N[C@@H](C)C(=O)N[C@@H](C)C(=O)NCCNC(=O)CCCCCNC(=O)COc2ccc(/C=C/C3=[N+]4C(=Cc5ccc(-c6cccs6)n5[B-]4(F)F)C=C3)cc2)c2ccccn2)cc1"
  measured-on: "Nluc-H1R (Homo sapiens, UniProt P35367)"
  assigned-class: "MET"
- compound: "C[C@H](NC(=O)CCN1CCC(Oc2ccccc2Cc2ccccc2)CC1)C(=O)N[C@@H](C)C(=O)N[C@@H](C)C(=O)NCCNC(=O)CCCCCNC(=O)COc1ccc(/C=C/C2=[N+]3C(=Cc4ccc(-c5cccs5)n4[B-]3(F)F)C=C2)cc1"
  measured-on: "Nluc-H1R (Homo sapiens, UniProt P35367)"
  assigned-class: "NOT MET"
- compound: "COc1ccc(CN(CCN(C)CCC(=O)N[C@@H](C)C(=O)N[C@@H](C)C(=O)N[C@@H](CO)C(=O)NCCNC(=O)CCCCCNC(=O)COc2ccc(/C=C/C3=[N+]4C(=Cc5ccc(-c6cccs6)n5[B-]4(F)F)C=C3)cc2)c2ccccn2)cc1"
  measured-on: "Nluc-H1R (Homo sapiens, UniProt P35367)"
  assigned-class: "MET"
- compound: "CC(O)[C@H](NC(=O)[C@H](C)NC(=O)[C@H](CC(N)=O)NC(=O)CCN1CCC(Oc2ccccc2Cc2ccccc2)CC1)C(=O)NCCNC(=O)CCCCCNC(=O)COc1ccc(/C=C/C2=[N+]3C(=Cc4ccc(-c5cccs5)n4[B-]3(F)F)C=C2)cc1 (some centres unmarked)"
  measured-on: "Nluc-H1R (Homo sapiens, UniProt P35367)"
  assigned-class: "NOT MET"
- compound: "NC(=O)C[C@H](NC(=O)CNC(=O)CNC(=O)CCN1CCC(Oc2ccccc2Cc2ccccc2)CC1)C(=O)NCCNC(=O)CCCCCNC(=O)COc1ccc(/C=C/C2=[N+]3C(=Cc4ccc(-c5cccs5)n4[B-]3(F)F)C=C2)cc1"
  measured-on: "Nluc-H1R (Homo sapiens, UniProt P35367)"
  assigned-class: "NOT MET"
